Assay: endothelial E-selectin expression blockers – imaging, HUVEC, immunofluorescence, MLSMR starter and 10KST1 sets, primary screen (AID 487);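 also: 100% = median nuclei count of all wells on the same plate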
Details: HUVEC TNFalpha-induced E-selectin immunofluorescence imaging, at 2 µM; measured here: cell number, toxicity
property: nuclei count (%)
Express the result in % but write the number alone.

Looking up O=C(Nc1cccc(C(F)(F)F)c1)c1ccco1 , I see its nuclei count listed as 99.3

Value of measured nuclei count for the entry Cc1c(C(=O)OCCOC(C)C)[nH]c2c1C(=O)CC(c1ccco1)C2 (stereo not given) : 83.1

GET /value?item= COc1ccc(CCNC(=O)c2cc3sc(Cl)cc3n2C)cc1OC &field=nuclei count returns 89

// sample Cc1nc2ccc(S(=O)(=O)NC(C(=O)NCc3cccs3)C(C)C)cc2s1 (stereo not given) , its nuclei count was 106

The recorded nuclei count for entry CCOC(=O)c1c(NC(=O)c2cccs2)sc(C)c1C equals 125

nuclei count reported for this compound Cc1sc2ncn3ncnc3c2c1C : 102

// field: nuclei count; key: O=C(c1ccc(Cl)c(F)c1F)N1CCCC1 ; value = 70.2

Value of nuclei count reported for the compound COC(=O)[C@H](C)NC(=O)Nc1cc(OC)ccc1OC is 103

// sample CCOc1cc(C2NC(=O)NC(O)(C(F)(F)F)C2C(=O)c2ccccc2)ccc1OC (stereo not given) , its nuclei count was 121

Please fill in: nuclei count reported for CCCOc1ccccc1C1CC(=O)Nc2cc3c(cc21)OCCO3 (stereo not given) = 97.2

Data point: O=c1oc2ccccc2c2c1ncn2-c1ccccc1 ; nuclei count = 114

Per the record, Cc1ccc2c(Cl)cc(Cl)c(OCc3c(C)noc3C)c2n1 has nuclei count of 142

Kindly note the recorded nuclei count for COC(=O)C(C)Sc1nnc2n(-c3cccc(C)c3)c(=O)c3c4c(sc3n12)CCCC4 (stereo not given) , which is 120

The compound listed as O=C(NCc1cccnc1)c1ccccn1 shows nuclei count equal to 108

The recorded nuclei count for Cc1ccc(S(=O)(=O)Nc2nc3ccccc3nc2NCc2ccco2)cc1 is 110

Just so you know, measured nuclei count for Cc1ccc2c(CNCc3ccco3)cc(=O)oc2c1 came out at 96.6

Entry Cc1oc2cc3c(C(=O)OCCN(C)C)c(C)oc3cc2c1C(=O)OCCN(C)C , nuclei count reported as 92.4

Record CC(C)(Oc1ccc(Cl)cc1)C(=O)NCc1ccncc1 . Reported nuclei count: 113

Measured nuclei count of CCc1nnc(NC(=O)c2ccc(COc3ccccc3)o2)s1 : 102

For reference, reported nuclei count for CCOc1ccc(CNC(=O)C2CCCN(S(C)(=O)=O)C2)cc1OC (stereo not given) stands at 136

The measured nuclei count associated with COC(=O)c1cnc2c(C(F)(F)F)cccc2c1OC reads 84.8

nuclei count measured on CSc1nc(C)cc(Oc2ccc(=O)n(C)n2)n1 = 109

Entry COC(=O)Nc1sc2c(c1C(N)=O)CCCCCC2 , nuclei count reported as 92

Consider COc1ccccc1N1CCN(C(=O)c2cc(C3CC3)on2)CC1 . Its measured nuclei count is 95.8

The compound listed as CCOc1ccc(-c2nc(N)ncc2-c2ccccc2)c(O)c1 has a reported nuclei count of 67.7
